The origin of these recorded values is ChEMBL document CHEMBL4043220.

- TARGET DESC: PDE7A (Homo sapiens, UniProt Q13946)
- Sequence (Q13946 whole entry): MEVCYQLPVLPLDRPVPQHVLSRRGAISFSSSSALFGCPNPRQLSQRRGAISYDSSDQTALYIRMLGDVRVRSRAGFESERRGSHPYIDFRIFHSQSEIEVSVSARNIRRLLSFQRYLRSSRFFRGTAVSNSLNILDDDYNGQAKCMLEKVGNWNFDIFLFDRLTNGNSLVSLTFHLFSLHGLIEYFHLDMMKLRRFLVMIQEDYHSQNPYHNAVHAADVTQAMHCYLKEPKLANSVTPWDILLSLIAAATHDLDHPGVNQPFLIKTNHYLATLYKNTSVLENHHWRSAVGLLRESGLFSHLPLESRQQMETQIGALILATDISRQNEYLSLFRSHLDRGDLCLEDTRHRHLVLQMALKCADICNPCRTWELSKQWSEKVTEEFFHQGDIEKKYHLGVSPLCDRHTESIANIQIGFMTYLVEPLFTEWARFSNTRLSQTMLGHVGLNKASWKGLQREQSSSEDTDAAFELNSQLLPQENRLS
- PROCEDURE DETAILS: Inhibition of human PDE7A at 100 uM
READOUT NAME: inhibition at 100 µM (%)
Please respond with the number in % and leave the unit unwritten.

Fill blank: measured inhibition at 100 µM of the molecule COc1cc2c(cc1OC1CCCC1)CN1C(=O)OCC1C2 (racemic) is ____. 5

###

- TARGET DESC: UniProt:Q9HCR9
- Sequence (Q9HCR9 whole entry): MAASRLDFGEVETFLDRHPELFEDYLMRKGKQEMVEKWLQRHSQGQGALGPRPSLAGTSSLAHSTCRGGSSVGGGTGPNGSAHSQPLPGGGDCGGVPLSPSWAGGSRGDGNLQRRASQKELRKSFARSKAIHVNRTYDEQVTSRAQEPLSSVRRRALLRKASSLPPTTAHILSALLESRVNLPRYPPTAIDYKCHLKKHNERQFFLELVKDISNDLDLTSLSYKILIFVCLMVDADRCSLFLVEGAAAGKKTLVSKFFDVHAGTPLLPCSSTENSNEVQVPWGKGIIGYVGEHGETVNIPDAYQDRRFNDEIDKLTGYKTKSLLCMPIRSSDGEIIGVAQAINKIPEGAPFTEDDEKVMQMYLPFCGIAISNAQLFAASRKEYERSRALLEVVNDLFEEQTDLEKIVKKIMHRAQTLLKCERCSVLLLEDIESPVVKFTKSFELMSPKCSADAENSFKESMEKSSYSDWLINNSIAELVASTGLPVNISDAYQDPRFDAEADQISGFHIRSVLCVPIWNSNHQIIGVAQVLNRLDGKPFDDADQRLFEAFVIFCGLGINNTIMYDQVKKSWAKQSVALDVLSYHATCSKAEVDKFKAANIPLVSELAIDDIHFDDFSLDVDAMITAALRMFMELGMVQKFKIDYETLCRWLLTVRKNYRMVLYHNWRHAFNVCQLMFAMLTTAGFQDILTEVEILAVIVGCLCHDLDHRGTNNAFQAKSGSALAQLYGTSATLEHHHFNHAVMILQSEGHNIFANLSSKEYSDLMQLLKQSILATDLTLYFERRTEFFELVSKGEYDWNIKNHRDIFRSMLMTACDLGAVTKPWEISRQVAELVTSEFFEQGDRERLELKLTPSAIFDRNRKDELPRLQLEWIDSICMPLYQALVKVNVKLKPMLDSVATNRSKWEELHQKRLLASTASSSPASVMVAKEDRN
- PROCEDURE DETAILS: Inhibition of human PDE11A at 100 uM
READOUT NAME: inhibition at 100 µM (%)
Please respond with the number in % and leave the unit unwritten.

Fill blank: measured inhibition at 100 µM of the molecule COc1cc2c(cc1OC1CCCC1)CN1C(=O)OCC1C2 (racemic) is ____. 3
